The values you see were collected from ChEMBL document CHEMBL3885881.

# Species on record: Rattus norvegicus
# EXPERIMENTAL PROTOCOL: DrugMatrix - Regimen: Daily Repeat
# Assay type: toxicity, organism-based, Sprague-Dawley
# Design: regimen Daily Repeat, gender Male, age 6-8 weeks
# CONDITION DETAILS: in vivo, po, 0 mg/kg, 120 h, tissue Blood, route oral GAVAGE, dose level Control, time 5 day, vehicle .5 % CMC
// NB: equality with 10% counts as Condition not met; only NEUTROPHIL strictly below is Condition met

Given the entry CC(C(=O)O)c1ccc2oc(-c3ccc(Cl)cc3)nc2c1 (stereo not given) , would its reported NEUTROPHIL be below 10%?
Condition not met

CN(C/C=C/C#CC(C)(C)C)Cc1cccc2ccccc12 , same question.
Condition not met

NCCCC(O)(P(=O)(O)O)P(=O)(O)O , same question.
Condition not met

Cn1c(=O)c2c(ncn2CC(O)CO)n(C)c1=O (stereo not given) , same question.
Condition met

COC1=C(OC)C(=O)C(CCCCCCCCCCO)=C(C)C1=O , same question.
Condition met

CC(=O)Oc1ccc(C(c2ccc(OC(C)=O)cc2)c2ccccn2)cc1 , same question.
Condition not met

O=C1CN=C(c2ccccc2Cl)c2cc([N+](=O)[O-])ccc2N1 , same question.
Condition met

NC1CCN(c2nc3c(cc2F)c(=O)c(C(=O)O)cn3-c2ccc(F)cc2F)C1 (stereo not given) , same question.
Condition not met

O=C1Nc2ccc(Cl)cc2C(c2ccccc2Cl)=NC1O (stereo not given) , same question.
Condition met

Clc1ccccc1CN1CCc2sccc2C1 , same question.
Condition not met
